These data points were gathered from patent US20110053900A1.

Quick list: Serum Progesterone, Before TX (mean) per entry.
Test: Serum progesterone by ELISA
Type: in vivo, rat
Settings: 10 mg/kg group; before treatment
Method: The animals were assessed three times for their levels of progesterone: initially, when they were about to go on treatment; a second time after 21 days of treatment; and finally after treatment at sacrifice which was 2-4 days after the last s.c. injection. All blood samples were taken by heart puncture; serum was prepared and held frozen at −40° C. The levels of the steroid hormones progesterone, cortisol, and corticosterone were determined by ELISA. […]
assayMetric: Serum Progesterone, Before TX (mean)

[
  {
    "compound": "CC(=O)OCC(=O)[C@@]1(OC(C)=O)CCC2C3CCC4=CC(=O)CCC4=C3C(c3ccc(N(C)C)cc3)C[C@@]21C (stereo partly shown) [CDB-4059]",
    "assayMetric": "Serum Progesterone, Before TX (mean)",
    "reportedResult": "57 ng/mL"
  },
  {
    "compound": "CC#C[C@]1(O)CC[C@H]2[C@@H]3CCC4=CC(=O)CCC4=C3[C@@H](c3ccc(N(C)C)cc3)C[C@@]21C [RU 486, mifepristone, reference compound]",
    "assayMetric": "Serum Progesterone, Before TX (mean)",
    "reportedResult": "58 ng/mL"
  },
  {
    "compound": "CC(=O)[C@H]1CC[C@H]2[C@@H]3CCC4=CC(=O)CC[C@]4(C)[C@H]3CC[C@]12C [Progesterone, progesterone]",
    "assayMetric": "Serum Progesterone, Before TX (mean)",
    "reportedResult": "51 ng/mL"
  },
  {
    "compound": "COCC(=O)[C@@]1(OC(C)=O)CC[C@H]2[C@@H]3CCC4=CC(=O)CCC4=C3[C@@H](c3ccc(N(C)C)cc3)C[C@@]21C [CDB-4124]",
    "assayMetric": "Serum Progesterone, Before TX (mean)",
    "reportedResult": "52 ng/mL"
  }
]

====

Test system: rabbit uterus
Test: Anti-McGinty and anti-Clauberg assays
Type: in vivo
Conditions: average of anti-McGinty and anti-Clauberg results relative to CDB-2914 = 1.00
Quick list: rabbit Biol. Act. per entry.

[
  {
    "compound": "CCOCC(=O)[C@@]1(OC(C)=O)CCC2C3CCC4=CC(=NO)CCC4=C3C(c3ccc(N(C)C)cc3)C[C@@]21C (stereo partly drawn) [CDB-4226]",
    "rabbit Biol. Act.": 0.54
  },
  {
    "compound": "COCC(=O)C1(OC(C)=O)CCC2C3CCC4=CC(=NO)CCC4=C3C(c3ccc(N(C)C)cc3)C[C@@]21C (stereo partly drawn) [CDB-4205]",
    "rabbit Biol. Act.": 1.00
  },
  {
    "compound": "CC(=O)O[C@]1(C(C)=O)CC[C@H]2[C@@H]3CCC4=CC(=O)CCC4=C3[C@@H](c3ccc(N(C)C)cc3)C[C@@]21C [CDB-2914, reference compound]",
    "rabbit Biol. Act.": 1.00
  },
  {
    "compound": "COCC(=O)[C@@]1(OC(C)=O)CC[C@H]2[C@@H]3CCC4=CC(=O)CCC4=C3[C@@H](c3ccc(N(C)C)cc3)C[C@@]21C [CDB-4124]",
    "rabbit Biol. Act.": 3.60
  },
  {
    "compound": "CC(=O)O[C@]1(C(=O)COC(=O)CN)CCC2C3CCC4=CC(=O)CCC4=C3C(c3ccc(N(C)C)cc3)C[C@@]21C (stereo partly drawn) [CDB-4306]",
    "rabbit Biol. Act.": 0.95
  },
  {
    "compound": "CC(=O)OCC(=O)[C@@]1(OC(C)=O)CCC2C3CCC4=CC(=NO)CCC4=C3C(c3ccc(N(C)C)cc3)C[C@@]21C (stereo partly drawn) [CDB-4206]",
    "rabbit Biol. Act.": 0.68
  }
]

====

Quick list: rbPR/rbGR (ratio of the relative binding affinities for rbPR and rbGR) per entry.
Tested on: rabbit progesterone receptor (rbPR) and glucocorticoid receptor (rbGR)
Test: Receptor-binding assays, ratio of relative binding affinities rbPR/rbGR
Settings: RBA = EC50 of standard/EC50 of test compound x 100
assayMetric: rbPR/rbGR (ratio of the relative binding affinities for rbPR and rbGR)

[
  {
    "molecule": "CC(=O)OCC(=O)[C@@]1(OC(C)=O)CCC2C3CCC4=CC(=O)CCC4=C3C(c3ccc(N(C)C)cc3)C[C@@]21C (stereo partly drawn) [CDB-4059]",
    "measuredOn": "rabbit progesterone receptor (rbPR) and glucocorticoid receptor (rbGR)",
    "reportedResult": 1.89
  },
  {
    "molecule": "CSCC(=O)[C@@]1(OC(C)=O)CCC2C3CCC4=CC(=O)CCC4=C3C(c3ccc(N(C)C)cc3)C[C@@]21C (stereo partly drawn) [CDB-4223]",
    "measuredOn": "rabbit progesterone receptor (rbPR) and glucocorticoid receptor (rbGR)",
    "reportedResult": 1.17
  },
  {
    "molecule": "C=COCC(=O)[C@@]1(OC(C)=O)CCC2C3CCC4=CC(=O)CCC4=C3C(c3ccc(N(C)C)cc3)C[C@@]21C (stereo partly drawn) [CDB-4361]",
    "measuredOn": "rabbit progesterone receptor (rbPR) and glucocorticoid receptor (rbGR)",
    "reportedResult": 7.20
  },
  {
    "molecule": "COCC(=O)C1(OC(C)=O)CCC2C3CCC4=CC(=NO)CCC4=C3C(c3ccc(N(C)C)cc3)C[C@@]21C (stereo partly drawn) [CDB-4205]",
    "measuredOn": "rabbit progesterone receptor (rbPR) and glucocorticoid receptor (rbGR)",
    "reportedResult": 1.99
  },
  {
    "molecule": "CCOCC(=O)[C@@]1(OC(C)=O)CCC2C3CCC4=CC(=O)CCC4=C3C(c3ccc(N(C)C)cc3)C[C@@]21C (stereo partly drawn) [CDB-4167]",
    "measuredOn": "rabbit progesterone receptor (rbPR) and glucocorticoid receptor (rbGR)",
    "reportedResult": 1.69
  },
  {
    "molecule": "CC(=O)O[C@]1(C(=O)CSC#N)CCC2C3CCC4=CC(=O)CCC4=C3C(c3ccc(N(C)C)cc3)C[C@@]21C (stereo partly drawn) [CDB-4352]",
    "measuredOn": "rabbit progesterone receptor (rbPR) and glucocorticoid receptor (rbGR)",
    "reportedResult": 4.21
  },
  {
    "molecule": "CC(=O)O[C@]1(C2COC(C)(C)O2)CCC2C3CCC4=CC(=O)CCC4=C3C(c3ccc(N(C)C)cc3)C[C@@]21C (stereo partly drawn) [CDB-4110]",
    "measuredOn": "rabbit progesterone receptor (rbPR) and glucocorticoid receptor (rbGR)",
    "reportedResult": 0.70
  },
  {
    "molecule": "COCC(=O)[C@@]1(OC(C)=O)CCC2C3CCC4=C(C(=O)c5ccccc5)C(=O)CCC4=C3C(c3ccc(N(C)C)cc3)C[C@@]21C (stereo partly drawn) [CDB-4239]",
    "measuredOn": "rabbit progesterone receptor (rbPR) and glucocorticoid receptor (rbGR)",
    "reportedResult": 14.80
  },
  {
    "molecule": "CC(=O)O[C@]1(C(=O)COC(=O)CN)CCC2C3CCC4=CC(=O)CCC4=C3C(c3ccc(N(C)C)cc3)C[C@@]21C (stereo partly drawn) [CDB-4306]",
    "measuredOn": "rabbit progesterone receptor (rbPR) and glucocorticoid receptor (rbGR)",
    "reportedResult": 5.90
  },
  {
    "molecule": "CC(=O)O[C@]1(C(C)=O)CC[C@H]2[C@@H]3CCC4=CC(=O)CCC4=C3[C@@H](c3ccc(N(C)C)cc3)C[C@@]21C [CDB-2914, reference compound]",
    "measuredOn": "rabbit progesterone receptor (rbPR) and glucocorticoid receptor (rbGR)",
    "reportedResult": 1.07
  },
  {
    "molecule": "CC(=O)OCC(=O)[C@@]1(OC(C)=O)CCC2C3CCC4=CC(=NO)CCC4=C3C(c3ccc(N(C)C)cc3)C[C@@]21C (stereo partly drawn) [CDB-4206]",
    "measuredOn": "rabbit progesterone receptor (rbPR) and glucocorticoid receptor (rbGR)",
    "reportedResult": 1.44
  },
  {
    "molecule": "CCC(=O)OCC(=O)[C@@]1(OC(C)=O)CCC2C3CCC4=CC(=O)CCC4=C3C(c3ccc(N(C)C)cc3)C[C@@]21C (stereo partly drawn) [CDB-4247]",
    "measuredOn": "rabbit progesterone receptor (rbPR) and glucocorticoid receptor (rbGR)",
    "reportedResult": 2.06
  },
  {
    "molecule": "CCC(=O)[C@@]1(OC(C)=O)CCC2C3CCC4=CC(=O)CCC4=C3C(c3ccc(N(C)C)cc3)C[C@@]21C (stereo partly drawn) [CDB-4030]",
    "measuredOn": "rabbit progesterone receptor (rbPR) and glucocorticoid receptor (rbGR)",
    "reportedResult": 0.96
  },
  {
    "molecule": "CC(=O)O[C@]1(C(=O)CO)CCC2C3CCC4=CC(=O)CCC4=C3C(c3ccc(N(C)C)cc3)C[C@@]21C (stereo partly drawn) [CDB-4152]",
    "measuredOn": "rabbit progesterone receptor (rbPR) and glucocorticoid receptor (rbGR)",
    "reportedResult": 0.82
  },
  {
    "molecule": "CC(=O)O[C@]1(C(=O)C[S+](C)[O-])CCC2C3CCC4=CC(=O)CCC4=C3C(c3ccc(N(C)C)cc3)C[C@@]21C (stereo partly drawn) [CDB-4101]",
    "measuredOn": "rabbit progesterone receptor (rbPR) and glucocorticoid receptor (rbGR)",
    "reportedResult": 0.61
  },
  {
    "molecule": "CCOCC(=O)[C@@]1(OC(C)=O)CCC2C3CCC4=CC(=NO)CCC4=C3C(c3ccc(N(C)C)cc3)C[C@@]21C (stereo partly drawn) [CDB-4226]",
    "measuredOn": "rabbit progesterone receptor (rbPR) and glucocorticoid receptor (rbGR)",
    "reportedResult": 1.51
  },
  {
    "molecule": "CC(=O)O[C@]1(C(=O)CF)CCC2C3CCC4=CC(=O)CCC4=C3C(c3ccc(N(C)C)cc3)C[C@@]21C (stereo partly drawn) [CDB-4058]",
    "measuredOn": "rabbit progesterone receptor (rbPR) and glucocorticoid receptor (rbGR)",
    "reportedResult": 1.08
  },
  {
    "molecule": "CC(=O)O[C@]1(C(=O)CBr)CCC2C3CCC4=CC(=O)CCC4=C3C(c3ccc(N(C)C)cc3)C[C@@]21C (stereo partly drawn) [CDB-4031]",
    "measuredOn": "rabbit progesterone receptor (rbPR) and glucocorticoid receptor (rbGR)",
    "reportedResult": 0.69
  }
]
